# Test system: M. tuberculosis strain H37Rv
# assay: microbe, parasite or virus in culture
# Type: cell-based, Mycobacterium tuberculosis
# Set-up: unit not given here
# run-parameters: H37Rv; MABA; Table 9
Strictly below 0.1 in MICMABA: 1 (yes). Otherwise: 0 (no).

Previously resolved entries follow.
{"molecule": "Cc1cc(C)c2cc(C(=O)NC3CCCN(C)CC3)[nH]c2c1 (stereo not shown) [Compound 9]", "measured-target": "M. tuberculosis strain H37Rv", "discrete-label": "0 (no)"}
{"molecule": "Cc1cc(C)c2cc(C(=O)Nc3ccccc3)[nH]c2c1 [Compound 4]", "measured-target": "M. tuberculosis strain H37Rv", "discrete-label": "0 (no)"}
{"molecule": "Cc1cc(C)c2cc(C(=O)NC3CCN(C(C)C)CC3)[nH]c2c1 [Compound 8]", "measured-target": "M. tuberculosis strain H37Rv", "discrete-label": "0 (no)"}
{"molecule": "O=C(NC1CCCCCCC1)c1cc2c(Cl)cc(Cl)cc2[nH]1 [Compound 70]", "measured-target": "M. tuberculosis strain H37Rv", "discrete-label": "1 (yes)"}
{"molecule": "Cc1cc(C)c2c(C(=O)NC3C4CC5CC(C4)CC3C5)c[nH]c2c1 (stereo not shown) [Compound 44]", "measured-target": "M. tuberculosis strain H37Rv", "discrete-label": "0 (no)"}

[in] Hi there! Is MICMABA for Cc1cc(C)c2cc(C(=O)NC3CC3)[nH]c2c1 [Compound 10] below 0.1, do you know?
[out] 0 (no)

[in] Quick check: MICMABA of Cc1cc(C)c2cc(C(=O)NC3CCCCCCC3)[nH]c2c1 [Compound 12] under 0.1?
[out] 1 (yes)

[in] Would you kindly verify if MICMABA of Cc1cc(C)c2cc(C(=O)NCC3CCCCC3)[nH]c2c1 [Compound 15] is strictly less than 0.1?
[out] 0 (no)

[in] API: query returns whether the molecule falls strictly under 0.1 in MICMABA. Query: Cc1cc(C)c2cc(C(=O)NC3C4CC5CC(C4)CC3C5)[nH]c2c1 (stereo not shown) [Compound 14]
[out] 1 (yes)

[in] Quick check: MICMABA of Cc1cc(C)c2cc(C(=O)NC3CCCCC3)[nH]c2c1 [Compound 3] under 0.1?
[out] 0 (no)

The reported numbers originate from patent US20170044100A1.
